# System: Human NCI-H460 lung carcinoma tumor xenograft
# assay method text: Xenograft model antitumor assay, NCI-H460
# Type: in vivo, nude mice
# test conditions: 40 mg/Kg/day, nude mice (FIG. 5A)
# Experimental: For tumor cell inoculation in nude mice, U-87 MG or NCI-H460 cells were harvested by trypsinization using a trypsin/EDTA solution. Cells were washed two times with phosphate-buffered saline Ca^2+—Mg^2+ free (PBS-CMF) and centrifuged. […] Tumors were measured in O2/isoflurane anesthetized mice twice a week using a digital caliper and tumor volume was calculated as: π/6×length×width^2. […]
Could you please report measured inhibition of NCI-460 tumor growth for the items listed next?
Report as a plain number; the unit % is understood.

Q. Data request, read-out inhibition of NCI-460 tumor growth, for SEQ ID NO: 10: sMTf-derived peptide; sequence shown only as a drawing in Table II (FRCLVENAGDVAFVRHKKKKKKKHRVFAVDGANEVLCRF)
A. 69

Q. Data request, read-out inhibition of NCI-460 tumor growth, for Ac-YSGAFRMLAEGAGDVAFVKHKKK-NH2 (Ac-YSGAFRMLAEGAGDVAFVKHKKK-NH2) [SEQ ID NO: 9]
A. 42

Q. Data request, read-out inhibition of NCI-460 tumor growth, for Ac-F-R-C-L-V-E-N-R-G-D-V-P-F-V-T-R-I-R-NH2 (Ac-FRCLVENRGDVPFVTRIR-NH2) [SEQ ID NO: 15]
A. 37

Q. Data request, read-out inhibition of NCI-460 tumor growth, for Ac-F-R-C-L-V-E-N-A-G-D-V-A-F-V-R-H-K-K-K-NH2 (Ac-FRCLVENAGDVAFVRHKKK-NH2) [SEQ ID NO: 5]
A. 45
